Target: human somatostatin receptor subtype 2 (Homo sapiens, UniProt P30874)
Construct: expressed in transfected cells
Sequence (P30874 whole entry): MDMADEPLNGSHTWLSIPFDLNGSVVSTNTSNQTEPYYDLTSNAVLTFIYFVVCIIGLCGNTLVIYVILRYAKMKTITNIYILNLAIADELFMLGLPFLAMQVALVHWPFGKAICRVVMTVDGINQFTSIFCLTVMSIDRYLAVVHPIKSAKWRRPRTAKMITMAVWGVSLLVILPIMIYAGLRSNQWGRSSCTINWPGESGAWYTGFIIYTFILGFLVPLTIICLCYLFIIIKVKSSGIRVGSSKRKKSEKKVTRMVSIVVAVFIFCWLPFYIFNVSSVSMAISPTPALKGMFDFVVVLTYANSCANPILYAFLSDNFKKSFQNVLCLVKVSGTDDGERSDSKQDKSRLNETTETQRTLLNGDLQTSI
Experiment: Functional cAMP assay for SSTR2 agonists (HTRF) in CHO-K1 cells
Assay type: cell-based
Conditions: CHO-K1 cells stably expressing human SST2, 20 min; read-out: hSST2 cAMP Avg EC50
Starred links: 1 amine or outer side, 2 acyl side, 3 side chain; linkers in the order of their positions; H or OH if unused. Non-standard residues stand in square brackets, D forms with d. Residues, ends and D or L forms follow the SMILES beside them. *: point of attachment. X4 = Cc1cc(F)cc(-c2cnc(NCCNC(=O)CCOCCOCCOCCOCCC(=O)*)c(-c3nc4ccc(Cl)cc4[nH]3)c2N2CCC(N)CC2)c1; Dolaproine = CO[C@@H]([C@@H]1CCCN1)[C@@H](C)C(=O)O; Dil = CC[C@H](C)[C@H](NC)[C@@H](CC(=O)O)OC; PABC = O=C(OCc1ccc(N[*:1])cc1)[*:2]; Cit = NC(=O)NCCC[C@H](N)C(=O)O; NMeV = CN[C@H](C(=O)O)C(C)C
endpoint.name: EC50 (pM)
Numbers only, in pM.

- molecule: "CC[C@H](C)[C@@H]([C@@H](CC(=O)N1CCC[C@H]1[C@H](OC)[C@@H](C)C(=O)N[C@@H](Cc1ccccc1)C(=O)O)OC)N(C)C(=O)[C@@H](NC(=O)[C@H](C(C)C)N(C)C(=O)OCc1ccc(NC(=O)[C@H](CCCNC(N)=O)NC(=O)[C@@H](NC(=O)CCOCCOCCOCCOCCC(=O)NCCNc2ncc(-c3cc(C)cc(F)c3)c(N3CCC(N)CC3)c2-c2nc3ccc(Cl)cc3[nH]2)C(C)C)cc1)C(C)C [Compound 42] (X4-V[Cit][PABC][NMeV]V[Dil][Dolaproine]F-OH)"
  EC50, pM: 120

Turning now to a further molecule:
Record `CC[C@H](C)[C@@H]([C@@H](CC(=O)N1CCC[C@H]1[C@H](OC)[C@@H](C)C(=O)N[C@H](C)[C@@H](O)c1ccccc1)OC)N(C)C(=O)[C@@H](NC(=O)[C@H](C(C)C)N(C)C(=O)OCc1ccc(NC(=O)[C@H](C)NC(=O)[C@@H](NC(=O)[C@H](CCC(=O)O)NC(=O)CCOCCOCCOCCOCCC(=O)NCCNc2ncc(-c3cc(C)cc(F)c3)c(N3CCC(N)CC3)c2-c2nc3ccc(Cl)cc3[nH]2)C(C)C)c(O[C@@H]2O[C@H](C(=O)O)[C@@H](O)[C@H](O)[C@H]2O)c1)C(C)C` / human somatostatin receptor subtype 2 (Homo sapiens, UniProt P30874), EC50 recorded as 200
